test: solvent given as SMILES; conditions: in CCO
PROPERTY LABEL: absorption maximum
Just the number plus its unit, please.

[[record]]
molecule = "N#C/C(=C/Nc1ccc(C#N)cc1)c1nc(-c2ccccc2)cs1"
value_observed = "373 nm"

[[record]]
molecule = "CN(C)c1cc2sc3cc(N(C)C)c(F)cc3c(=O)c2cc1F"
value_observed = "382 nm"

[[record]]
molecule = "O=C(N/N=C/c1ccccc1O)c1ccc([N+](=O)[O-])cc1"
value_observed = "345 nm"

[[record]]
molecule = "Nc1ccc(C#Cc2ccc3ccc4ccc(C#Cc5ccc(N)cc5)c5ccc2c3c45)cc1"
value_observed = "419 nm"

[[record]]
molecule = "Cc1ccc(Nc2ccc(Nc3ccc(C)cc3)c3c2C(=O)c2ccccc2C3=O)cc1"
value_observed = "637 nm"


Challenge: Param item = c1ccc(-c2cc(-c3ccc4ccc5c(-c6ccnc(-c7ccccn7)c6)ccc6ccc3c4c65)ccn2)nc1 ; retrieve measured absorption maximum.
Response given: 361 nm

Challenge: Also CCN(CC)c1ccc2cc(-c3ccc(S(C)(=O)=O)cc3)oc(=O)c2c1 , if possible.
Response given: 376 nm

Challenge: Another: CCC1=C(C)C2=C(c3c4ccccc4c(C)c4ccccc34)c3c(C)c(CC)c(C)n3[B-](F)(F)[N+]2=C1C
Response given: 528 nm

Challenge: Try the molecule Cc1ccc2cc3c(=O)n(C)c(=O)n(C)c3nc2c1
Response given: 353 nm

====

assay: solvent given as SMILES; details: in CC(C)CO
Recorded absorption maximum for the following compounds
Provide the measurement as a number trailed by its unit.

See these solved cases before continuing.
[[record]]
compound = "COC(=O)C(Cc1ccc2oc(-c3ccc4c(c3)c3ccccc3n4-c3ccccc3)nc2c1)NC(=O)OC(C)(C)C (centres undefined)"
property_label = "absorption maximum"
value_observed = "335.8 nm"

[[record]]
compound = "Oc1cccc(/N=C/c2ccccc2Oc2ccccc2)c1"
property_label = "absorption maximum"
value_observed = "323 nm"


Challenge: // query absorption maximum value for entry COC1=C/C(=C\C=C2C=CN(Cc3ccc(Br)cc3)C=C2)C=CC1=O
Response given: 576 nm

Challenge: Let us now turn to COCCOCCOCCOc1ccc(OCCOCCOCCOC)c(C=O)c1
Response given: 349 nm

====

Below: a set of entries, each annotated with reported absorption maximum.
assay: solvent given as SMILES; details: in CC#N
Please provide the amount together with its unit, number first.

In the examples that follow, each entry is paired with its recorded absorption maximum.
[[record]]
smiles_repr = "CCOC(=O)c1sc(SC)c2c(=O)n(C)nnc12"
property_label = "absorption maximum"
value_observed = "388 nm"

[[record]]
smiles_repr = "C(C#Cc1ccc2ccc3cccc4ccc1c2c34)#Cc1cccc2ccccc12"
property_label = "absorption maximum"
value_observed = "407 nm"

[[record]]
smiles_repr = "CCN(CC)c1ccc2cc(/C=C/C3=CC(/C=C/c4cc5ccc(N(CC)CC)cc5oc4=O)=[O+][B-](F)(F)O3)c(=O)oc2c1"
property_label = "absorption maximum"
value_observed = "630 nm"


Challenge: Look up absorption maximum for this compound: CCC1(CC)c2ccccc2-c2c1c1c(c3c2C(CC)(CC)c2cc(B(c4c(C)cc(C)cc4C)c4c(C)cc(C)cc4C)ccc2-3)C(CC)(CC)c2cc(B(c3c(C)cc(C)cc3C)c3c(C)cc(C)cc3C)ccc2-1
Response given: 359 nm

Challenge: Now the same for CCN(CC)c1ccc(OC)c(C=O)c1
Response given: 412 nm

====

experiment: solvent given as SMILES; conditions: in ClCCl
The reader will find reported absorption maximum values listed item by item below.
Supply the numeric figure in nm, leaving out any unit text.

// below: answered compounds
[[record]]
compound = "F[B-]1(F)n2c(NCc3ccccc3)ccc2C(c2c(Cl)cccc2Cl)=C2C=CC(NCc3ccccc3)=[N+]21"
value_observed = 581

[[record]]
compound = "COc1ccc2n1[B-](F)(F)[N+]1=C(SC#N)C=CC1=C2c1ccccc1"
value_observed = 508

[[record]]
compound = "CCCCCCCC(=O)Oc1ccc2c3cccc4c(OC(=O)CCCCCCC)ccc(c5cccc1c52)c43"
value_observed = 445

[[record]]
compound = "CC(C)(C)c1ccc(-c2nc3c4ccccc4c4ccccc4c3n2-c2ccc(-c3ccc(N(c4ccccc4)c4ccccc4)cc3)cc2)cc1"
value_observed = 332

[[record]]
compound = "COc1cc2c(cc1OC)C1=C[C@H](c3ccccc3)C3(C(C(=O)O[C@@H]4C[C@H]5CC[C@@H]4C5)=C(C(=O)O[C@H]4C[C@@H]5CC[C@H]4C5)N1CC2)c1ccccc1-c1ccccc13"
value_observed = 314


Challenge: Param item = O=P1(c2ccccc2)C(c2ccccc2)=Cc2ccccc21 (stereo not drawn) ; retrieve measured absorption maximum.
Response given: 350

Challenge: Further, for CSc1ccc(/C=C/c2ccncn2)cc1 ?
Response given: 346

Challenge: Also check CCCCOc1c(-c2ccc(N(c3ccccc3)c3ccccc3)cc2)cc2cc(-c3ccc(N(c4ccccc4)c4ccccc4)cc3)c(OCCCC)c3c4c(OCCCC)c(-c5ccc(N(c6ccccc6)c6ccccc6)cc5)cc5cc(-c6ccc(N(c7ccccc7)c7ccccc7)cc6)c(OCCCC)c(c1c23)c54
Response given: 422

====

assay: solvent given as SMILES; settings: in ClCCl
Below: a set of entries, each annotated with reported absorption maximum.
Give just the number in nm; leave the unit off.

Challenge: Entry under review: N#Cc1nc2c(OCc3ccccc3)nc(N)nc2n1Cc1ccccc1 . Reported absorption maximum?
Response given: 311

Challenge: And for Cc1cc2oc3ccccc3c2c2[nH]c3ccccc3c12 ?
Response given: 337

Challenge: Could you do the same for CC1=CC(C)=[N+]2C1=C(c1ccc(-c3ccc(OS(=O)(=O)c4ccc([N+](=O)[O-])cc4[N+](=O)[O-])cc3)s1)c1c(C)cc(C)n1[B-]2(F)F , please?
Response given: 515

Challenge: And for c1ccc(N(c2ccccc2)c2ccc(-c3nc(-c4ccc(N(c5ccccc5)c5ccccc5)cc4)c4ccccc4n3)cc2)cc1 ?
Response given: 370

Challenge: Ok, now O=c1c2cc(-n3c4ccccc4c4ccccc43)ccc2sc2ccc(-n3c4ccccc4c4ccccc43)cc12
Response given: 408

Challenge: How about this compound: Cc1ccc2nc3cc4c5c(cccc5c3nc2c1)C(c1ccccc1)=C(c1ccccc1)O4
Response given: 491

Challenge: And what about the compound CC(C)(C)c1ccc2c(c1)c1cc(C(C)(C)C)ccc1n2-c1ccc(C#Cc2ccccc2)cc1 ?
Response given: 334

Challenge: Entry CCn1c2ccccc2c2cc(C#Cc3cc(C#Cc4ccc5c(c4)c4ccccc4n5CC)nc(SC)n3)ccc21 please
Response given: 396

Challenge: Next record, please: c1ccc2c(-n3c(-c4ccc(-c5ccc(-c6nc7c8ccccc8c8ccccc8c7n6-c6cccc7ccccc67)c6ccccc56)c5ccccc45)nc4c5ccccc5c5ccccc5c43)cccc2c1
Response given: 334

Challenge: Next record, please: C#Cn1c(-c2cc(-c3nc4ccc(C)cc4n3C#C)cc(-c3nc4ccc(C)cc4n3C#C)c2)nc2ccc(C)cc21
Response given: 306.5

Challenge: And the next one, CCN(CC)c1ccc2cc(C#N)c(=N)oc2c1 ?
Response given: 428

Challenge: What do you have for COc1ccc2c(c1)[nH]c1c3[nH]c4cc(OC)ccc4c3c3nsnc3c21 ?
Response given: 430

Challenge: # iterate: CCCCCCCCCCCCN1C(=O)c2c(c3ccc4cc(-c5ccc(OC)cc5)c(OC)cc4c3c3c2ccc2cc(-c4ccc(OC)cc4)c(OC)cc23)C1=O
Response given: 443

Challenge: Check COc1cc(-c2cnc(-c3ccncc3)o2)cc(OC)c1OC too.
Response given: 332

Challenge: Follow-up entry: COc1ccc(-c2nnc(-c3cc(-n4c5ccccc5c5ccccc54)c(-n4c5ccccc5c5ccccc54)cc3-c3nnc(-c4ccc(OC)cc4)o3)o2)cc1
Response given: 353

Challenge: Queued: CC(C)(C)c1ccc(-n2c(-c3ccc(-c4cccc(-c5c(-c6ccccc6)nc6ccccn56)c4)cc3)nc3c4ccccc4c4ccccc4c32)cc1
Response given: 365

====

assay: solvent given as SMILES; conditions: in ClC(Cl)Cl
Reported absorption maximum values follow for various compounds
The figure you give is taken to be in nm; do not add the unit.

// worked examples, absorption maximum included
[[record]]
compound = "O=S(=O)(c1ccc(-c2ccc(-c3nc4c5ccccc5c5ccccc5c4n3-c3ccccc3)cc2)cc1)c1ccc(-c2ccc(-c3nc4c5ccccc5c5ccccc5c4n3-c3ccccc3)cc2)cc1"
u = "nm"
value_observed = 368

[[record]]
compound = "CCC1=C(C)C2C(c3ccc(-c4ccc(-c5nc6c7ccccc7c7ccccc7c6n5-c5ccc(C(C)(C)C)cc5)cc4)cc3)c3c(C)c(CC)c(C)n3[B-](F)(F)[N+]2=C1C (stereo not drawn)"
u = "nm"
value_observed = 526


Read the next record carefully.
Challenge: Please give the measured absorption maximum for this compound: CN1C(=CC2=C([O-])C(=CC3=[N+](C)c4ccccc4C3(C)C)C2=C2C(=O)c3ccccc3C2=O)C(C)(C)c2ccccc21
Response given: 675
